- testedOn: UniProtKB Q9H3N8
- Sequence (Q9H3N8 whole entry): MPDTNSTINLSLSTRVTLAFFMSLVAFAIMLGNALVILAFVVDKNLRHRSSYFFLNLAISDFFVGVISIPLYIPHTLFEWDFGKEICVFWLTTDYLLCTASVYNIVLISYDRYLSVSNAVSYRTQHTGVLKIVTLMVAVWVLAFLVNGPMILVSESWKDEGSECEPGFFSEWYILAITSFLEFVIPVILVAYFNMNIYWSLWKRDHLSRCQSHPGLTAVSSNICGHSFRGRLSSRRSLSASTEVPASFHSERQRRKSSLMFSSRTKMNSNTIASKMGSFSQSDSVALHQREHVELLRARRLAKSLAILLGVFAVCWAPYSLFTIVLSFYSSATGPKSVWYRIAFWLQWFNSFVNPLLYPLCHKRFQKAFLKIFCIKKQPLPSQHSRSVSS
pKi: −log10 of the molar value.
recordedEndpoint: pKi

>>> quantitativeresult("NC(=NCc1ccc(Cl)cc1)SCCCc1cnc[nH]1")
8.18

This collection of values is drawn from patent US20040138234A1.
